Recorded values, source patent US20160257732A1.

target: HA of A/Victoria/3/75 (H3N2) (influenza A virus); assay: cell-based or functional assay
Recorded Neutralization IC50, H3-Vic75 for the following binders
Give the number; µg/mL is assumed, so skip it.

The following binders have reported results that may help.
Antibody 11 (antibody, V domains shown) VH: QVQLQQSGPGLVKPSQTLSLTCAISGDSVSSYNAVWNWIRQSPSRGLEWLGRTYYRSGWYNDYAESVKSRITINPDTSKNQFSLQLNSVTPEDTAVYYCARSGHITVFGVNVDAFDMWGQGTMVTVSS VL: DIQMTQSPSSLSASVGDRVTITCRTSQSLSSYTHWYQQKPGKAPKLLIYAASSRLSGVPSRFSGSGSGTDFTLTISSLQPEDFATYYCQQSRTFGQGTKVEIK
0.46
Antibody 3 (antibody, V domains shown) VH: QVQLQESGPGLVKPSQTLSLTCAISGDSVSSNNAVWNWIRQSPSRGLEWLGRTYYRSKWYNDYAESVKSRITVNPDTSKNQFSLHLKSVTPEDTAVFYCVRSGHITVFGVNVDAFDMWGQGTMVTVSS VL: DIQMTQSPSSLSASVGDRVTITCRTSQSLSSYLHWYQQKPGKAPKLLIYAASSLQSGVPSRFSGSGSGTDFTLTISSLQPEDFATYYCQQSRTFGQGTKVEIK
1.12

Could you now consider this next binder?
Neutralization IC50, H3-Vic75 for Antibody 12 (antibody, V domains shown) VH: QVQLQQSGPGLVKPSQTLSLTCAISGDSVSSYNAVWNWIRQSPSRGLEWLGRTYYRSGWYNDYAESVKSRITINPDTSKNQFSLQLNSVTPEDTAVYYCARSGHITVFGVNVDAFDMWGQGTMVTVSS VL: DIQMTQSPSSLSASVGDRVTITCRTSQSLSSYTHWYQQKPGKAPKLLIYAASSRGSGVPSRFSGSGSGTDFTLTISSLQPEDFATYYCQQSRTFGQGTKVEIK is 0.32
